- TEST: chemical genetic growth profiling, strain panel (AID 1159580);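 note: tested at 20 µM; growth read once vehicle control cultures reached saturation at 30 °C; 1 = growth at the plate median or of vehicle wells; lower values mean less growth of the strain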
- CONDITION DESCRIPTION: S. cerevisiae deletion strains, growth OD, locus YML094W, strain GIM5, stronger effect = lower value
Screen size: about 5,500 compounds; about 2,000 (36%) were called active. Inconclusive results (about 18%) are left out. The list shows a part of the results.
Parameter: normalized growth. Scope: all listed entries.
EXPERIMENTAL ENDPOINT: normalized growth

SMILES STRING	VALUE OBSERVED
CCOC(=O)c1[nH]c(Cc2[nH]c(C(=O)OCC)c(C)c2C)c(C)c1C	0.988
CCOC(=O)C1CCN(C(=S)Nc2ccccc2C(F)(F)F)CC1	1.08
Cc1ccc(-c2csc(-c3ccc(Cl)cc3)n2)c(C)c1	0.9
Cc1ccc(C)c(NC(=S)N(CCc2ccccc2)CCc2ccccn2)c1	0.95
CCOC(=O)c1cnc2cc(C)nn2c1C	0.953
COc1cc2c(cc1OC)CC(=O)OC2	0.999
COc1cc(/C=C2\NC(=O)NC2=O)ccc1O	0.989
COc1ccccc1N1CCN(S(=O)(=O)c2cc(C)c(Cl)cc2C)CC1	0.958
CCOC(=O)C(=CNc1ccccc1N1CCOCC1)C(=O)OCC	0.958
CCOC(=O)C(=CNc1cccc(C#N)c1)C(=O)OCC	0.963
Cc1ccc(NC(=S)NNC(C)(C)C)cc1	0.827
CCOc1ccc(/C=C(\C#N)c2cccc(Cl)c2)cc1	0.927

----------
Listing: normalized growth of selected compounds
- TEST: chemical genetic growth profiling, strain panel (AID 1159580)
- CONDITION DESCRIPTION: S. cerevisiae deletion strains, growth OD, locus YPL051W, strain arl3, stronger effect = lower value
In all, about 5,500 compounds went through this assay and about 2,000 (36%) were called active. Not shown: some 18% with an inconclusive outcome. Some of the results follow.
EXPERIMENTAL ENDPOINT: normalized growth

COMPOUND	VALUE OBSERVED
CCN(CCO)CCCC(C)Nc1ccnc2cc(Cl)ccc12 (centres undefined)	0.995
COc1cc2c(cc1OC)C(=O)OC2	0.994
CC1=C(/C=C/C(C)=C/C=C/C(C)=C/C=C/C=C(C)/C=C/C=C(C)/C=C/C2=C(C)C(=O)CCC2(C)C)C(C)(C)CCC1=O	1.02
CCCCCCCCCCCCCCCC(=O)OC/C=C(C)/C=C/C=C(C)/C=C/C1=C(C)CCCC1(C)C	1.02
CS(=O)(=O)c1ccc(C2=C(c3ccccc3)C(=O)OC2)cc1	0.986
CC(=O)OCC[N+](C)(C)C	1.05
CN1CCC(=C2c3ccccc3CCc3sccc32)CC1	0.956
NC(=O)C(c1ccccc1)(c1ccccc1)C1CCN(CCc2ccc3c(c2)CCO3)C1 (centres undefined)	1.04
CC(=O)OC(C)(C)[C@@H]1Cc2cc3ccc(=O)oc3cc2O1	1

----------
- TEST: chemical genetic growth profiling, strain panel (AID 1159580)
- CONDITION DESCRIPTION: S. cerevisiae deletion strains, growth OD, locus YPL241C, strain CIN2, stronger effect = lower value
The campaign covered roughly 5,500 compounds. About 2,000 (36%) were called active. About 18% were inconclusive and are not listed. The list shows a part of the results.
Measured normalized growth values are reported for all entries that follow.
EXPERIMENTAL ENDPOINT: normalized growth

SMILES STRING	VALUE OBSERVED
O=C(O)c1cc2ccccc2[nH]1	1.06 (inactive)
CCOC(=O)c1[nH]c(Cc2[nH]c(C(=O)OCC)c(C)c2C)c(C)c1C	1.01 (inactive)
CCOC(=O)CCC(=O)O[C@H]1[C@H](O[C@@H]2[C@@H](C)[C@H](O[C@H]3C[C@@](C)(OC)[C@@H](O)[C@H](C)O3)[C@@H](C)C(=O)O[C@H](CC)[C@@](C)(O)[C@H](O)[C@@H](C)C(=O)[C@H](C)C[C@@]2(C)O)O[C@H](C)C[C@@H]1N(C)C	0.979 (inactive)
NC(=O)c1ccc[n+]([C@@H]2O[C@H](COP(=O)([O-])OP(=O)(O)OC[C@H]3O[C@@H](n4cnc5c(N)ncnc54)[C@H](O)[C@@H]3O)[C@@H](O)[C@H]2O)c1	0.984 (inactive)
O=C1C=CC(=C(c2ccc(O)cc2)c2ccc(O)cc2)C=C1	1.02 (inactive)
CN(C)c1ccc(C(=C2C=CC(=[N+](C)C)C=C2)c2ccc(N(C)C)cc2)cc1	0.316 (active)
Cc1cc(O)c(C=O)c(O)c1C(=O)O	0.995 (inactive)

----------
- TEST: chemical genetic growth profiling, strain panel (AID 1159580)
- CONDITION DESCRIPTION: S. cerevisiae deletion strains, growth OD, locus YMR307W, strain GAS1, stronger effect = lower value
In all, about 5,500 compounds went through this assay and about 2,000 (36%) were called active. Inconclusive results (about 18%) are left out. The list shows a part of the results.

COMPOUND	normalized growth
CCN(CCO)CCCC(C)Nc1ccnc2cc(Cl)ccc12 (stereo unspecified)	1.11
CCCCNc1cc(C(=O)O)cc(S(N)(=O)=O)c1Oc1ccccc1	0.957
COc1ccc2c3c1O[C@H]1C[C@@H](O)C=C[C@@]31CCN(C)C2	1.06
COCCc1ccc(OCC(O)CNC(C)C)cc1 (stereo unspecified)	1.02
CCOC(=O)C(=O)C1(C(=O)OCC)Oc2cc(OC)cc(OC)c2C(=O)C1c1ccccc1 (stereo unspecified)	0.949
COc1ccc(S(=O)(=O)Nc2ccccc2Oc2ccc(Cl)cc2Cl)cc1OC	0.986

----------
- TEST: chemical genetic growth profiling, strain panel (AID 1159580);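 note: tested at 20 µM; growth read once vehicle control cultures reached saturation at 30 °C; 1 = growth at the plate median or of vehicle wells; lower values mean less growth of the strain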
- CONDITION DESCRIPTION: S. cerevisiae deletion strains, growth OD, locus YLR027C, strain aat2, stronger effect = lower value
The campaign covered roughly 5,500 compounds. About 2,000 (36%) were called active. Not shown: some 18% with an inconclusive outcome. The list shows a part of the results.
EXPERIMENTAL ENDPOINT: normalized growth

MOLECULE	EXPERIMENTAL ENDPOINT	VALUE OBSERVED
CC(CCc1ccccc1)NC(C)C(O)c1ccc(O)cc1 (stereo not drawn)	normalized growth	0.994
NCC1CCC(C(=O)O)CC1 (stereo not drawn)	normalized growth	0.989
CN(C)C(=S)SSC(=S)N(C)C	normalized growth	0.0546
CNC(C)[C@H](O)c1ccccc1 (stereo partly drawn)	normalized growth	1.02
CCCCCCCCNC(C)C(O)c1ccc(SC(C)C)cc1 (stereo not drawn)	normalized growth	0.053
CCOC(=O)C(C)(C)Oc1ccc(Cl)cc1	normalized growth	0.994
CC(=O)OCC[N+](C)(C)C	normalized growth	1.02
CC(Oc1ccccc1)C(=O)N[C@@H]1C(=O)N2[C@@H]1SC(C)(C)[C@@H]2C(=O)O (stereo partly drawn)	normalized growth	1
O=C(O)C1(O)C[C@@H](O)C(O)[C@H](O)C1 (stereo partly drawn)	normalized growth	0.981
CCOC(=O)c1c(C)c(Cl)c(O)c(Cl)c1O	normalized growth	0.517
CC(N)C(=O)OC(C)(C)Cc1ccc(Cl)cc1 (stereo not drawn)	normalized growth	1.01
CC(NCCc1ccc(O)cc1)C(O)c1ccc(O)cc1 (stereo not drawn)	normalized growth	0.983
C[N+](C)(C)CCOC(N)=O	normalized growth	1.01

----------
Parameter normalized growth: see the listing below.
- TEST: chemical genetic growth profiling, strain panel (AID 1159580);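 note: tested at 20 µM; growth read once vehicle control cultures reached saturation at 30 °C; 1 = growth at the plate median or of vehicle wells; lower values mean less growth of the strain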
- CONDITION DESCRIPTION: S. cerevisiae deletion strains, growth OD, locus YBR160W, strain CDC28, stronger effect = lower value
The whole screen tested about 5,500 compounds, of which about 2,000 (36%) were called active. Roughly 18% stayed inconclusive and do not appear here. The list shows a part of the results.
EXPERIMENTAL ENDPOINT: normalized growth

MOLECULE	VALUE OBSERVED
Cc1nnsc1C(=O)NNc1ccc(F)cc1F	0.956
CC(C)(C)CN/C(C#N)=C(/C#N)NCc1cccc(Cl)c1	0.991
Cc1cc(C(=O)NNc2ccc(F)cc2F)no1	0.964
CSC1=NNC(c2nn(C)cc2Cl)S1 (stereo not drawn)	0.644
Cc1ccc(Sc2c(Sc3ccc(C)cc3)c(=O)c2=O)cc1	0.958
COc1cc(NC(=S)N(C)C)c(OC)cc1Cl	0.991
Nc1ccccc1SCc1c(Cl)cccc1Cl	0.953
O=c1c(Sc2ccc(Cl)cc2)c(Sc2ccc(Cl)cc2)c1=O	0.973
Cc1cc(Cl)ccc1NNC(=O)c1snnc1C	0.959
Cc1nn(Cc2cccc(C(=O)Nc3ccc(Cl)cc3)c2)c(C)c1Br	0.979
O=C(NNc1ccccc1F)c1ccno1	0.977
Cc1cc(Cl)ccc1NNC(=O)c1ccno1	0.966
N#Cc1ccc(S(=O)(=O)Nc2ccccc2Oc2ccc(Cl)cc2Cl)cc1	0.983

----------
- TEST: chemical genetic growth profiling, strain panel (AID 1159580);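 note: tested at 20 µM; growth read once vehicle control cultures reached saturation at 30 °C; 1 = growth at the plate median or of vehicle wells; lower values mean less growth of the strain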
- CONDITION DESCRIPTION: S. cerevisiae deletion strains, growth OD, locus YLR357W, strain rsc2, stronger effect = lower value
Among all 5,500 compounds or so, about 2,000 (36%) were called active. Inconclusive results (about 18%) are left out. The list shows a part of the results.

COMPOUND	normalized growth
CO[C@H]1[C@H](O)[C@H](O[C@H]2CC[C@]3(C)C4CC[C@]5(C)C(C6=CC(=O)OC6)CC[C@]5(O)C4CC[C@@H]3C2)O[C@@H](C)[C@@H]1O (stereo not given in full)	0.992
CC(C(=O)O)c1cccc(C(=O)c2ccccc2)c1 (stereo not given)	0.933
COc1ccc(OC)c(C(O)C(C)N)c1 (stereo not given)	0.971
COc1ccc2cc([C@H](C)C(=O)O)ccc2c1	0.963
CC1=C(CC(=O)O)c2cc(F)ccc2/C1=C\c1ccc(S(C)=O)cc1 (stereo not given)	1.05
